# Procedure Text: Cytotoxicity against mouse HMC after 24 hrs by PrestoBlue staining-based assay
# Applied Conditions: mouse HMC cells, read-out: LC50
Quick reference: CC50 at 24 h of the listed items.
Report the figure in µM without appending any unit label.

CC1(C)OC2=C(C(=O)C(=O)c3ccccc32)C1n1cc(CNC2=C(Cl)C(=O)c3ccccc3C2=O)nn1 (stereo not drawn) has a reported CC50 at 24 h of 282

The reported CC50 at 24 h of the molecule CC1(C)OC2=C(C(=O)C(=O)c3ccccc32)C1n1cc(CNC2=C(Br)C(=O)c3ccccc3C2=O)nn1 (stereo not drawn) was 63.1
